# Tested on: NCI-H226 lung
# test: NCI tumour cell line growth inhibition, 48 h
What TGI was measured for each of the following?

State its TGI: CC[C@@H](/C=C\CCC1(C[C@H](O)CCC=C(C)C)OCCO1)O[Si](C(C)C)(C(C)C)C(C)C
35.9 µM

Give the measured TGI for COc1cc(COC(=O)N2CCC2C(=O)O)c([N+](=O)[O-])cc1OC (configuration not stated)
> 100 µM

Please report the measured TGI for CC(C)=CCC/C(C)=C/CC/C(C)=C/CC/C(C)=C/CC/C(C)=C\CC/C(C)=C/CC/C(C)=C/CC/C(C)=C/Cc1cc(O)ccc1O
4.65 µM

Please indicate TGI recorded for Clc1nc(Cl)c2c(ncn2C/C=C\Cn2cnc3c(Cl)nc(Cl)nc32)n1
3.84 µM

Output measured TGI for this item: COc1cc(C2c3cc4c(cc3[C@@H](Nc3cccc(C(C)=O)c3)C3COC(=O)[C@H]23)OCO4)cc(OC)c1O (some centres not stated)
1.99 µM

Check the records and state TGI for COc1ccc2c(c1)OC(N(C(C)=O)C(C)=O)=C(C#N)C2c1ccc(F)cc1 (configuration not stated)
> 100 µM

Let me know recorded TGI for CC(C)=CCSC1CC2C(CC1(C)O)C2(C)C (configuration not stated) , thanks.
27.5 µM

Quickly give me recorded TGI for CN1CN(c2ccccc2)C2(CCN(CCc3csc4ccccc34)CC2)C1=O
39.6 µM

Tell me TGI reported for Cc1ccc2c(n1)C(=O)c1ccccc1C2=O
> 100 µM

Name the recorded TGI of the item CC1(C)CC(=O)c2c(nc3ccc4ccccc4c3c2-c2ccc(NC(=O)CCC(=O)Nc3ccc(-c4c5c(nc6ccc7ccccc7c46)CC(C)(C)CC5=O)cc3)cc2)C1 in your answer.
> 100 µM

Output measured TGI for this item: O=NNc1nc(-c2cccnc2)nc2ccccc12
> 100 µM

Answer with reported TGI of O=C(CC(C(=O)c1ccoc1)c1ccco1)c1ccco1 (configuration not stated)
> 100 µM

Fill in reported TGI for this entry: O=c1oc2ccccc2n1CCN1CCCCC1
> 100 µM

Please look at this compound and report its TGI: C=CC[C@H](C)CCC(=O)N1[C@H]2CC3CC[C@@]2(CS1(=O)=O)C3(C)C
> 100 µM

# return recorded TGI for entry CC[n+]1c(/C=C/c2ccc(N(CCCl)CCCl)cc2)ccc2cc(NC(=O)/C=C/c3ccccc3)ccc21
2.89 µM

Please look at this compound and report its TGI: O=C(CN1CCN(c2ccccc2)CC1)N1CCc2c([nH]c3ccccc23)C1c1cccnc1 (configuration not stated)
> 100 µM

For the compound Brc1ccc2[nH]cc(-c3nc(-c4c[nH]c5ccccc45)cs3)c2c1 , report TGI.
8.13 µM

Identify measured TGI associated with CCCCCCCCCc1cc(=O)c2ccc(O)cc2o1
> 100 µM

# return recorded TGI for input C=C1CC[C@@H]2[C@](C)(COC(C)=O)[C@H](OC(C)=O)CC[C@@]2(C)[C@@H]1CC(Nc1ccc(S(=O)(=O)Nc2nccc(C)n2)cc1)C1=CCOC1=O (some centres not stated)
5.91 µM

Note down TGI recorded for CSC1=C(c2ccc(Cl)cc2)SC(N2CCCCC2)N1c1ccc([N+](=O)[O-])cc1 (configuration not stated)
> 100 µM

Write down TGI measured for item COc1cc(Cn2c3c(c4c(C(=O)NCCN(C)C)c(O)ccc42)C(=O)c2ccccc2C3=O)cc(OC)c1
48.3 µM

Annotate the compound COc1ccc(N=C(Nc2ccc(OC)cc2)C(=Nc2ccc(OC)cc2)Nc2ccc(OC)cc2)cc1 with its measured TGI.
> 100 µM

Indicate the recorded TGI value for this compound: Cc1cccc(NC(=S)N=Nc2c(O)[nH]c3ccccc23)c1
> 100 µM

Answer with reported TGI of COC(=O)c1cc(C#Cc2cc(OC)ccc2OC)ccc1OC
> 100 µM

Look up TGI of O[C@@H]1C[C@@H]2N[C@@](O)(C[C@@H]2O)[C@H]1O and report it.
> 100 µM

Please indicate TGI recorded for C[C@@H]1COCCN1c1cc(C2(S(C)(=N)=O)CC2)nc(-c2ccnc3[nH]ccc23)n1 (some centres not stated)
76.8 µM

Assign TGI to the following record: CN(C)c1ccc2cc(-c3ccccc3F)c(N)nc2c1
20.3 µM

Fill in reported TGI for this entry: CCC1C(c2cc(OC)c(OC)c(OC)c2)c2cc3c(cc2OC1N1CCOCC1)OCO3 (configuration not stated)
27.6 µM

Kindly indicate its recorded TGI. Item: Nc1nc2c(c(=O)[nH]1)CN(c1ccc(S(N)(=O)=O)cc1)CN2
> 100 µM

Answer with reported TGI of CN(C)C(=S)N=Nc1c(O)[nH]c2ccccc12
6.43 µM

Fill in reported TGI for this entry: Cc1cc2c3ccccc3n(C)c2c2c1C(=O)C=CC2=O
42.5 µM

# return recorded TGI for entry COCc1cc2c(cc1/C=C/[N+](=O)[O-])OCO2
42.9 µM

Give recorded TGI. c1cc2c(c(-c3c4ccccc4nc4ccccc34)c1)CC1(CC2)OCCO1
> 100 µM

Identify measured TGI associated with N#CC1(C#N)NC(c2ccsc2)C(C#N)(C#N)NC1c1ccsc1 (configuration not stated)
> 100 µM

Return reported TGI. Input compound: CC(=O)c1cc([N+](=O)[O-])ccc1OCC(=O)O
> 100 µM

Find the measured TGI of CC(=O)OCC1OC(n2ccc(=O)[nH]c2=O)C(OC(C)=O)C1OC(C)=O (configuration not stated) and report it.
> 100 µM

Look up and state reported TGI for Cc1ccc(Nc2cc(=O)[nH]c(=S)[nH]2)cc1
> 100 µM

Note down TGI recorded for COc1ccc(CCNC(=O)Cc2cc(OC)c(OC)cc2CO)cc1OC
> 100 µM

Give the value of TGI reported for the following: CCOC(=O)NN1C(=O)C(=P(c2ccccc2)(c2ccccc2)c2ccccc2)C(C(=O)OCC)=C1C
> 100 µM

In one line, give reported TGI of the entry COc1ccc(NC(=O)/C(CC2=Nc3ccc([N+](=O)[O-])cc3NC2O)=N\NC(=O)C[N+](C)(C)C)c(OC)c1 (configuration not stated) .
> 100 µM

Find the measured TGI of Cc1cccc(C(C)C)c1NC(=O)C(=O)CC(=O)c1c(C)n([O-])c2ccccc2[n+]1=O and report it.
> 100 µM

Please supply the value of reported TGI for the item N#C/C(=C\c1cccc(O)c1)C(N)=O
> 100 µM
